ASSAYED_TARGET: human ether-à-go-go-related gene (hERG) potassium channel (human, UniProt Q12809)
Sequence (Q12809 whole entry, looked up): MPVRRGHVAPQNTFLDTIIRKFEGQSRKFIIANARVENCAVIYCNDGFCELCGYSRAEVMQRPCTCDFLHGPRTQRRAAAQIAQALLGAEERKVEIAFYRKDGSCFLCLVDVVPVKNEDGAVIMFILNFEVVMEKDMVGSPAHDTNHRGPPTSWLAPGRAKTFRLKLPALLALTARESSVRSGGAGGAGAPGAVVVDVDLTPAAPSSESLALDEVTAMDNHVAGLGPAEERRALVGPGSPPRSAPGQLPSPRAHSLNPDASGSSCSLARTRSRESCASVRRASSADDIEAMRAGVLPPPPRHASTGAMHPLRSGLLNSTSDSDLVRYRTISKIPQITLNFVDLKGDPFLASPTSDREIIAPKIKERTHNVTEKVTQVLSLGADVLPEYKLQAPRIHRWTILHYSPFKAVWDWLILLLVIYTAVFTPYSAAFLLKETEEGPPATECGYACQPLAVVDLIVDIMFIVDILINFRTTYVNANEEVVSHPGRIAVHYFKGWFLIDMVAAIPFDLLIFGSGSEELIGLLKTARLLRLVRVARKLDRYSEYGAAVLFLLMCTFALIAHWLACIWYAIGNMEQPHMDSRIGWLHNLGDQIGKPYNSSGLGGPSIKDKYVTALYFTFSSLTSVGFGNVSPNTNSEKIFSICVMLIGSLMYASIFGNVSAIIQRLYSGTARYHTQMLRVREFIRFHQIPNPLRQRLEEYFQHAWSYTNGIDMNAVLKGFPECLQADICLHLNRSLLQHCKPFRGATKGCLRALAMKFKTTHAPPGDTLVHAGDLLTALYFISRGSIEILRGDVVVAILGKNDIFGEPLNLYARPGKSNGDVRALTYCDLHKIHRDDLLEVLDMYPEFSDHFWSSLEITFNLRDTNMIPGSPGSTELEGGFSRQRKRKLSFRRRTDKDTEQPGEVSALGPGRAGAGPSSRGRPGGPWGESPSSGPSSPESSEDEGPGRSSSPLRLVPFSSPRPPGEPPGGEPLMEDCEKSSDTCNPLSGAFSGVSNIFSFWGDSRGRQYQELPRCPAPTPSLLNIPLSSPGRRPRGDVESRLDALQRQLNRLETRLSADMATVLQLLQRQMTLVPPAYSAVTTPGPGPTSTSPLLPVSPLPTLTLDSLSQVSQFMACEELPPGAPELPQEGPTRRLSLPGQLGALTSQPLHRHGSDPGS
TEST_NAME: primary screen, population patch clamp on CHO cells stably expressing hERG; higher = less effect of the substance
About 2,200 (0.71%) of roughly 310,000 compounds showed an effect of 50% or more. Effects have a minus sign here. Many of the other results were omitted from the sample, so strong results are more common in it than they were.
Entries and their hERG current change (%, negative = inhibition) at 1uM
Please make sure the unit comes right after the number.

Example molecules with recorded hERG current change (%, negative = inhibition) at 1uM:
- MOLECULE: "O=C(OCc1nnc(-c2ccc(Br)cc2)o1)c1ccco1"
  OBSERVED_VALUE: "-3.17%"
- MOLECULE: "CCN(CC)CCCNC(=O)c1nn(-c2ccc(OC)cc2OC)c(=O)c2ccccc12"
  OBSERVED_VALUE: "8.97%"
- MOLECULE: "COc1ccccc1-n1c(O)c(/C=C2\\C=Nc3ccccc32)c(=O)[nH]c1=O"
  OBSERVED_VALUE: "11.9%"
- MOLECULE: "Cn1c(=O)c2c(nc(SCCN3CCOCC3)n2Cc2ccccc2)n(C)c1=O"
  OBSERVED_VALUE: "-5.7%"

Any idea what hERG current change (%, negative = inhibition) at 1uM was measured for `CCc1ccc(C(=O)c2cnc3ccc(OC)cc3c2N2CCN(CC)CC2)cc1` ?
-46.6%

Report hERG current change (%, negative = inhibition) at 1uM for `O=c1[nH]c(=O)n(CCC2=CCCCC2)c(O)c1C=NCc1cccnc1` please.
9.06%

Please look up its hERG current change (%, negative = inhibition) at 1uM: `O=C(CCC(=O)c1ccc(F)cc1)OCc1nnc(-c2ccc([N+](=O)[O-])cc2)o1`
1.72%

Can you share its hERG current change (%, negative = inhibition) at 1uM? I mean this molecule: `O=C(Nc1ncn[nH]1)c1ccc([N+](=O)[O-])cc1[N+](=O)[O-]`
18.3%

What does the record list as hERG current change (%, negative = inhibition) at 1uM for `COc1ccc(CCNC(=O)c2cccc([N+](=O)[O-])c2)cc1OC` ?
3.3%

I have this molecule here, `CCOC(=O)Cn1cnc2c(nnn2-c2cccc(OC)c2)c1=O` , and I need its recorded hERG current change (%, negative = inhibition) at 1uM.
17%

Consider the molecule `CCOc1ccc(C(=O)C2CCN(C(=O)c3ccc([N+](=O)[O-])cc3)CC2)cc1` and give its measured hERG current change (%, negative = inhibition) at 1uM.
-81.1%

Reported hERG current change (%, negative = inhibition) at 1uM, molecule `Cn1c(=O)c2c(nc(SCCN3CCOCC3)n2Cc2ccccc2Cl)n(C)c1=O` : ____
-8.97%

So what's the measured hERG current change (%, negative = inhibition) at 1uM for this one? `CCOC(=O)c1cnc2ccc(OCC)cc2c1N1CCN(C)CC1.Cl`
-15.6%
